Biological target: T1, EsCas13d, nuclease-dead (Eubacterium siraeum, UniProt B0MS50, R295A;H300A;R849A;H854A)
T1 sequence: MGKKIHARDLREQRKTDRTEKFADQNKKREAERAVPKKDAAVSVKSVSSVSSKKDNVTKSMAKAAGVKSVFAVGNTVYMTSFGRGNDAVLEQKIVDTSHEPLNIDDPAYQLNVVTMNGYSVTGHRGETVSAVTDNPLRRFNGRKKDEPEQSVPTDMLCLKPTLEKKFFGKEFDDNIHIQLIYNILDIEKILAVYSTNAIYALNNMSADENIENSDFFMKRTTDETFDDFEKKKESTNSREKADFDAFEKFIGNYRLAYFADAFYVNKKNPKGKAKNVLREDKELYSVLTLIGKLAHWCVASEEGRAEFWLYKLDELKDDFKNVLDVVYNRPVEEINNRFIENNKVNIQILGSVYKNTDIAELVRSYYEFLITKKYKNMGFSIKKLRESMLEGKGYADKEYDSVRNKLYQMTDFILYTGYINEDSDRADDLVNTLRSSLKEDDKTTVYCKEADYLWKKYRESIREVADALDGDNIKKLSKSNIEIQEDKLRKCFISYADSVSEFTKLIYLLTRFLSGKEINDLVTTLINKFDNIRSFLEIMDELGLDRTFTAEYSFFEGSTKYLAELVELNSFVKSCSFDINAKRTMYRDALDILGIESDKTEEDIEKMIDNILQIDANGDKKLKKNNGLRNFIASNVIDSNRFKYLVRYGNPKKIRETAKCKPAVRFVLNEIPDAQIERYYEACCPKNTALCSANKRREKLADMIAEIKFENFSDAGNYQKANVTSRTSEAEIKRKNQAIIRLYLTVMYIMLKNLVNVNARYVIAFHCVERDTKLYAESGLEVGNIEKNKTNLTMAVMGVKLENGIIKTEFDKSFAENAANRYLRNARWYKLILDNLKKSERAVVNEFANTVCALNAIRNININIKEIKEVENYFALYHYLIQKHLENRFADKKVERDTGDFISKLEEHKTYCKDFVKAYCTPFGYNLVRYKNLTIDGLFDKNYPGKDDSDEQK
Assay: crRNA (strand 1, pre-loaded); Mg2+; 40 mM Tris-HCl pH 7.5, 150 mM NaCl, 6 mM MgCl2, 1 mM DTT, 0.1% Tween-20, 0.2 mg/ml BSA; 25 C; 10 min per concentration, then washed
Conditions: tags: His6-TwinStrep-SUMO cleaved; N-terminal SNAP kept (SNAP-Surface 488); label: 3' end held by stalled T7 RNA polymerase
Each record here notes measured Kd.
assay.endpoint: Kd (nM)

| binder | measured.number |
| --- | --- |
| target 3 insA 3' of 6,insC 3' of 4 (mixed) RNA 1: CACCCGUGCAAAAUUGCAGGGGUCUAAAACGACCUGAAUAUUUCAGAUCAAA RNA 2: GGGAAUGGAUCCACAUCUACGAAUUCGUUUUUGAUCUGAAAUAUUCAAGCGUCUGCAGAUCGGAAGAGCACACGU | 8.4 |
| target 2 MT 5'PFS UAG 3'PFS UAU (mixed) RNA 1: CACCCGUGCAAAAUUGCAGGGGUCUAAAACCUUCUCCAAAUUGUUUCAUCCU RNA 2: GGGAAUGGAUCCACAUCUACGAAUUCUAGAGGAUGAAACAAUUUGGAGAAGUAUAGAUCGGAAGAGCACACGU | 2.94 |
